Reference source for all entries: the supplement of paper PMC13380429

# maps each entry to its cell viability
system: Caco-2; test: cell viability relative to DMSO; higher = less toxic; conditions: 72 h; 1000 nM
Answer with a number only, understood to be in %.

O=C1/C(=C/c2ccccc2)C[C@@]2(O)[C@H]3Cc4ccc(O)c5c4[C@@]2(CCN3CC2CC2)[C@H]1O5 [BNTX] | 93.8
Cc1c(C)c2c(c(C)c1O)CC[C@@](C)(CCC[C@H](C)CCC[C@H](C)CCCC(C)C)O2 [vitamin-E] | 94.8
CN1C(=O)/C(=C2/C(=O)Nc3ccccc32)c2ccccc21 [meisoindigo] | 87.2
Cc1ccc2c(c1)Cc1c(C(=O)NC3CCCCC3)nn(-c3ccc(Cl)cc3Cl)c1-2 [GP2a] | 95.4
C/C=C1\NC(=O)[C@H]2CSSCC/C=C/[C@H](CC(=O)N[C@H](C(C)C)C(=O)N2)OC(=O)[C@H](C(C)C)NC1=O [romidepsin] | 1.4
CCn1c(O)nnc1-c1ccc(Cl)cc1 [5-(4chlorophenyl)-4-ethyl-2,4-dihydro-3H-1,2,4-triazol-3-one] | 91.6
O=C(O)C(F)(F)C(F)(F)C(F)(F)C(F)(F)C(F)(F)C(F)(F)C(F)(F)F [ammonium-perfluorocaprylate] | 95.4
CN(C)C/C=C(/c1ccc(Br)cc1)c1cccnc1 [zimelidine] | 93.6

The molecule N=C(N)Nc1ccc2[nH]c3c(c2c1)C[C@@]1(O)[C@H]2Cc4ccc(O)c5c4[C@@]1(CCN2CC1CC1)[C@H]3O5 [GNTI] , when measured on Caco-2, yielded cell viability of 95.6

Assay Caco-2, sample COc1cc2c(cc1OC)C(c1ccc(N)cc1)=NNC(=O)C2 [CFM-2] , cell viability read: 95.5
